# System: Ca channel (T + L, diltiazem site)
# Assay type: binding, rat
# protocol-conditions: Table 5; reference compound, 8 concentrations; read-out: Ref. Compound IC50, Calcium (diltiazem)
measured-metric: pIC50
// pIC50: -log10(molar conc.)

Find pIC50 (Ca channel (T + L, diltiazem site)) for the entry COc1ccc([C@@H]2Sc3ccccc3N(CCN(C)C)C(=O)[C@@H]2OC(C)=O)cc1 [diltiazem, reference compound]
7.25

---

# measured-on: Ca channel (T + L, verapamil site)
# assay-explanation: Binding to calcium channel, verapamil site ([3H]D 888, rat cerebral cortex)
# protocol-conditions: Table 5; reference compound, 8 concentrations; read-out: Ref. Compound IC50, Calcium (verapamil)
measured-metric: pIC50
Give only the number. pIC50 is defined as minus log10 of concentration in molar units.

May I ask what pIC50 has been recorded for COc1ccc(CCN(C)CCCC(C#N)(c2cc(OC)c(OC)c(OC)c2)C(C)C)cc1OC (racemic) [D600, reference compound] ?
7.44

Data provenance: patent US5677346A
